molecular target: UniProt:P00760; assay: Inhibition of bovine trypsin
Sequence (P00760 whole entry): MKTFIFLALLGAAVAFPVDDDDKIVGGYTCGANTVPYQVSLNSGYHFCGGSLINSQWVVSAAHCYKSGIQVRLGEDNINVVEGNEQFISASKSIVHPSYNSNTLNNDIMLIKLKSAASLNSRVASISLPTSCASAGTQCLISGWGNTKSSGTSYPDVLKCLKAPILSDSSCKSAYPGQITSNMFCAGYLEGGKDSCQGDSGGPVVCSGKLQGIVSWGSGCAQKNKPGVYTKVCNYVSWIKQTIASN
VALUE_KIND: K obs / 1

COMPOUND	TEST_VALUE
NCCCCCC(NC(=O)OCc1ccccc1)P(=O)(Oc1ccccc1)Oc1ccccc1 (stereo not given)	21 M⁻¹ s⁻¹
NC(N)c1ccc(C(NC(=O)c2ccccc2Oc2ccccc2)P(=O)(Oc2ccccc2)Oc2ccccc2)cc1 (stereo not given)	670 M⁻¹ s⁻¹
C[C@H](NC(=O)[C@@H](CCCCNC(=O)OC(C)(C)C)NC(=O)OCc1ccccc1)C(=O)NC(c1ccc(C(N)N)cc1)P(=O)(Oc1ccccc1)Oc1ccccc1 (stereo not given in full)	3100 M⁻¹ s⁻¹
N=C(N)c1ccc(CC(NC(=O)OCc2ccccc2)P(=O)(Oc2ccccc2)Oc2ccccc2)cc1 (stereo not given)	24 M⁻¹ s⁻¹
N=C(N)c1ccc(C(NC(=O)[C@@H]2CCCN2C(=O)OCc2ccccc2)P(=O)(Oc2ccccc2)Oc2ccccc2)cc1 (stereo not given in full)	910 M⁻¹ s⁻¹
C[C@H](NC(=O)OCc1ccccc1)C(=O)N[C@H](C)C(=O)N[C@@H](C)C(=O)NC(c1ccc(C(N)N)cc1)P(=O)(Oc1ccccc1)Oc1ccccc1 (stereo not given in full)	1780 M⁻¹ s⁻¹
NC(N)c1ccc(C(NC(=O)c2cccc(Oc3ccccc3)c2)P(=O)(Oc2ccccc2)Oc2ccccc2)cc1 (stereo not given)	50 M⁻¹ s⁻¹
NC(N)c1ccc(C(NC(=O)OCc2cccc3ccccc23)P(=O)(Oc2ccccc2)Oc2ccccc2)cc1 (stereo not given)	30 M⁻¹ s⁻¹
C[C@H](NC(=O)[C@@H](CCCCN)NC(=O)OCc1ccccc1)C(=O)NC(c1ccc(C(N)N)cc1)P(=O)(Oc1ccccc1)Oc1ccccc1 (stereo not given in full)	3140 M⁻¹ s⁻¹
C[C@H](NC(=O)[C@@H](Cc1ccccc1)NC(=O)OCc1ccccc1)C(=O)NC(c1ccc(C(N)N)cc1)P(=O)(Oc1ccccc1)Oc1ccccc1 (stereo not given in full)	3010 M⁻¹ s⁻¹
NC(N)c1ccc(C(NC(=O)[C@@H]2CCCN2C(=O)CNS(=O)(=O)Cc2ccccc2)P(=O)(Oc2ccccc2)Oc2ccccc2)cc1 (stereo not given in full)	37100 M⁻¹ s⁻¹
N=C(N)c1ccc(C(NC(=O)/C=C/c2ccco2)P(=O)(Oc2ccccc2)Oc2ccccc2)cc1 (stereo not given)	360 M⁻¹ s⁻¹
C[C@H](NC(=O)[C@@H](C)NC(=O)CCC(=O)O)C(=O)NC(c1ccc(C(=N)N)cc1)P(=O)(Oc1ccccc1)Oc1ccccc1 (stereo not given in full)	640 M⁻¹ s⁻¹
NC(N)c1ccc(C(NS(=O)(=O)c2cccc3ccccc23)P(=O)(Oc2ccccc2)Oc2ccccc2)cc1 (stereo not given)	170 M⁻¹ s⁻¹
C[C@H](NC(=O)[C@H]1CCCN1C(=O)OCc1ccccc1)C(=O)NC(c1ccc(C(=N)N)cc1)P(=O)(Oc1ccccc1)Oc1ccccc1 (stereo not given in full)	240 M⁻¹ s⁻¹

* * *

biological target: Tryptase (Homo sapiens) (UniProt Q9BZJ3+Q15661+Q9NRR2); assay: Inhibition of mast cell tryptase; assay type: protein assay
Each entry gets FALSE if its kobs/[I] (second-order inhibition rate constant) stays under 0.8 M⁻¹ s⁻¹, and TRUE if its kobs/[I] (second-order inhibition rate constant) is 0.8 M⁻¹ s⁻¹ or above.

COMPOUND	TARGET_DESC	CLASSIFICATION
N=C(N)c1ccc(C(NC(=O)[C@@H]2CCCN2C(=O)CCc2ccccc2)P(=O)(Oc2ccccc2)Oc2ccccc2)cc1 (stereo not given in full)	Tryptase (Homo sapiens) (UniProt Q9BZJ3+Q15661+Q9NRR2)	FALSE
N=C(N)c1ccc(C(NC(=O)/C=C/c2ccccc2)P(=O)(Oc2ccccc2)Oc2ccccc2)cc1 (stereo not given)	Tryptase (Homo sapiens) (UniProt Q9BZJ3+Q15661+Q9NRR2)	FALSE
C[C@H](NC(=O)[C@@H](CCCCNC(=O)OC(C)(C)C)NC(=O)OCc1ccccc1)C(=O)NC(c1ccc(C(N)N)cc1)P(=O)(Oc1ccccc1)Oc1ccccc1 (stereo not given in full)	Tryptase (Homo sapiens) (UniProt Q9BZJ3+Q15661+Q9NRR2)	TRUE
C[C@H](NC(=O)[C@@H](Cc1ccccc1)NC(=O)OCc1ccccc1)C(=O)NC(c1ccc(C(N)N)cc1)P(=O)(Oc1ccccc1)Oc1ccccc1 (stereo not given in full)	Tryptase (Homo sapiens) (UniProt Q9BZJ3+Q15661+Q9NRR2)	TRUE
N=C(N)c1ccc(C(NC(=O)/C=C/c2cccs2)P(=O)(Oc2ccccc2)Oc2ccccc2)cc1 (stereo not given)	Tryptase (Homo sapiens) (UniProt Q9BZJ3+Q15661+Q9NRR2)	TRUE
N=C(N)c1ccc(C(NC(=O)[C@@H]2CCCN2C(=O)c2ccccc2Oc2ccccc2)P(=O)(Oc2ccccc2)Oc2ccccc2)cc1 (stereo not given in full)	Tryptase (Homo sapiens) (UniProt Q9BZJ3+Q15661+Q9NRR2)	TRUE
NC(N)c1ccc(C(NC(=O)c2ccccc2Oc2ccccc2)P(=O)(Oc2ccccc2)Oc2ccccc2)cc1 (stereo not given)	Tryptase (Homo sapiens) (UniProt Q9BZJ3+Q15661+Q9NRR2)	FALSE
C[C@H](NC(=O)OCc1ccccc1)C(=O)N[C@H](C)C(=O)N[C@@H](C)C(=O)NC(c1ccc(C(N)N)cc1)P(=O)(Oc1ccccc1)Oc1ccccc1 (stereo not given in full)	Tryptase (Homo sapiens) (UniProt Q9BZJ3+Q15661+Q9NRR2)	TRUE
NCCCCC(NC(=O)OCc1ccccc1)P(=O)(Oc1ccccc1)Oc1ccccc1 (stereo not given)	Tryptase (Homo sapiens) (UniProt Q9BZJ3+Q15661+Q9NRR2)	TRUE
NC(N)c1ccc(C(NC(=O)[C@@H]2CCCN2C(=O)CNS(=O)(=O)Cc2ccccc2)P(=O)(Oc2ccccc2)Oc2ccccc2)cc1 (stereo not given in full)	Tryptase (Homo sapiens) (UniProt Q9BZJ3+Q15661+Q9NRR2)	TRUE
CC(C)(C)OC(=O)N[C@H](Cc1ccccc1)C(=O)N1CCC[C@H]1C(=O)NC(c1ccc(C(N)N)cc1)P(=O)(Oc1ccccc1)Oc1ccccc1 (stereo not given in full)	Tryptase (Homo sapiens) (UniProt Q9BZJ3+Q15661+Q9NRR2)	FALSE
C[C@H](NC(=O)[C@@H](CC(=O)O)NC(=O)OCc1ccccc1)C(=O)NC(c1ccc(C(=N)N)cc1)P(=O)(Oc1ccccc1)Oc1ccccc1 (stereo not given in full)	Tryptase (Homo sapiens) (UniProt Q9BZJ3+Q15661+Q9NRR2)	FALSE
C[C@H](NC(=O)[C@@H](CCCCN)NC(=O)OCc1ccccc1)C(=O)NC(c1ccc(C(N)N)cc1)P(=O)(Oc1ccccc1)Oc1ccccc1 (stereo not given in full)	Tryptase (Homo sapiens) (UniProt Q9BZJ3+Q15661+Q9NRR2)	TRUE
C[C@H](NC(=O)[C@@H](C)NC(=O)CCC(=O)O)C(=O)NC(c1ccc(C(=N)N)cc1)P(=O)(Oc1ccccc1)Oc1ccccc1 (stereo not given in full)	Tryptase (Homo sapiens) (UniProt Q9BZJ3+Q15661+Q9NRR2)	FALSE

* * *

biological target: Tryptase (Homo sapiens) (UniProt Q9BZJ3+Q15661+Q9NRR2); assay: Compound was evaluated to inhibit mast cell tryptase; No inhibition; assay type: protein assay
The source made the active and inactive calls. The rule behind the calls is not given here.
VALUE_KIND: K obs / 1

COMPOUND	TARGET_DESC	TEST_VALUE
NC(N)c1ccc(C(NC(=O)OCc2cccc3ccccc23)P(=O)(Oc2ccccc2)Oc2ccccc2)cc1 (centres undefined)	Tryptase (Homo sapiens) (UniProt Q9BZJ3+Q15661+Q9NRR2)	inactive
C[C@@H](O)[C@H](NC(=O)OCc1ccccc1)C(=O)NC(c1ccc(C(=N)N)cc1)P(=O)(Oc1ccccc1)Oc1ccccc1 (some centres undefined)	Tryptase (Homo sapiens) (UniProt Q9BZJ3+Q15661+Q9NRR2)	inactive
N=C(N)c1ccc(C(NC(=O)/C=C/c2ccco2)P(=O)(Oc2ccccc2)Oc2ccccc2)cc1 (centres undefined)	Tryptase (Homo sapiens) (UniProt Q9BZJ3+Q15661+Q9NRR2)	inactive
NCCCC(NC(=O)OCc1ccccc1)P(=O)(Oc1ccccc1)Oc1ccccc1 (centres undefined)	Tryptase (Homo sapiens) (UniProt Q9BZJ3+Q15661+Q9NRR2)	inactive

* * *

A collection of compounds and their measured log10 of kobs/[I] (second-order inactivation rate constant)
molecular target: UniProt:P12544; experiment: Inhibition of human granzyme A
Sequence (P12544 whole entry): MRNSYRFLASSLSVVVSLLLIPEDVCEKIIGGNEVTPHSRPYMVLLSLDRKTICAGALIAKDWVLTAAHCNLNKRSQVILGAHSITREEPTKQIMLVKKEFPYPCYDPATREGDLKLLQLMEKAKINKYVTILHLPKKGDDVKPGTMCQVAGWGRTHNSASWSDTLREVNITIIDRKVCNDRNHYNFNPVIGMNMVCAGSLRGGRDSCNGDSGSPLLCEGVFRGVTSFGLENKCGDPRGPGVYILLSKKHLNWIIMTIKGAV
VALUE_KIND: log10 of kobs/[I] (second-order inactivation rate constant) (log10 of the value in M⁻¹ s⁻¹)

COMPOUND	TEST_VALUE
C[C@H](NC(=O)[C@@H](Cc1ccccc1)NC(=O)OCc1ccccc1)C(=O)NC(c1ccc(C(N)N)cc1)P(=O)(Oc1ccccc1)Oc1ccccc1 (stereo not given in full)	3.25
CC(C)C[C@H](NC(=O)OCc1ccccc1)C(=O)NC(c1ccc(C(=N)N)cc1)P(=O)(Oc1ccccc1)Oc1ccccc1 (stereo not given in full)	0.80
CC(C)(C)OC(=O)N[C@H](Cc1ccccc1)C(=O)N1CCC[C@H]1C(=O)NC(c1ccc(C(N)N)cc1)P(=O)(Oc1ccccc1)Oc1ccccc1 (stereo not given in full)	2.23
C[C@H](NC(=O)[C@@H](C)NC(=O)OCc1ccccc1)C(=O)NC(c1ccc(C(=N)N)cc1)P(=O)(Oc1ccccc1)Oc1ccccc1 (stereo not given in full)	2.91
C[C@H](NC(=O)[C@@H](CC(=O)O)NC(=O)OCc1ccccc1)C(=O)NC(c1ccc(C(=N)N)cc1)P(=O)(Oc1ccccc1)Oc1ccccc1 (stereo not given in full)	2.38
N=C(N)c1ccc(C(NC(=O)CCC(=O)O)P(=O)(Oc2ccccc2)Oc2ccccc2)cc1 (stereo not given)	2.93
NC(N)c1ccc(C(NC(=O)c2ccccc2Oc2ccccc2)P(=O)(Oc2ccccc2)Oc2ccccc2)cc1 (stereo not given)	2.73
N=C(N)c1ccc(C(NC(=O)[C@@H]2CCCN2C(=O)c2cccc(Oc3ccccc3)c2)P(=O)(Oc2ccccc2)Oc2ccccc2)cc1 (stereo not given in full)	2.52
C[C@H](NC(=O)[C@@H](CC(=O)OC(C)(C)C)NC(=O)OCc1ccccc1)C(=O)NC(c1ccc(C(=N)N)cc1)P(=O)(Oc1ccccc1)Oc1ccccc1 (stereo not given in full)	2.45
N=C(N)c1ccc(CC(NC(=O)OCc2ccccc2)P(=O)(Oc2ccccc2)Oc2ccccc2)cc1 (stereo not given)	3.44
C[C@H](NC(=O)OCc1ccccc1)C(=O)NC(c1ccc(C(N)N)cc1)P(=O)(Oc1ccccc1)Oc1ccccc1 (stereo not given in full)	3.22
NCCCCC(NC(=O)OCc1ccccc1)P(=O)(Oc1ccccc1)Oc1ccccc1 (stereo not given)	3.08
C[C@H](NC(=O)[C@@H](CCCCNC(=O)OC(C)(C)C)NC(=O)OCc1ccccc1)C(=O)NC(c1ccc(C(N)N)cc1)P(=O)(Oc1ccccc1)Oc1ccccc1 (stereo not given in full)	2.04
N=C(N)c1ccc(C(NC(=O)[C@@H]2CCCN2C(=O)c2ccccc2Oc2ccccc2)P(=O)(Oc2ccccc2)Oc2ccccc2)cc1 (stereo not given in full)	2.79
N=C(N)c1ccc(C(NC(=O)/C=C/c2cccs2)P(=O)(Oc2ccccc2)Oc2ccccc2)cc1 (stereo not given)	2.87
